FYI, the data here is from the supplement of paper PMC3484114.

# Tested on: OVCAR-3-derived ovarian cancer stem-like cells (spheroids)
# run-description: cell growth relative to untreated control; higher = more growth (less inhibition)
# condition-set: 2.29 µM; 96 h
Answer not satisfied if cell growth is under 90%, and satisfied if it is 90% or more.

[[record]]
compound = "Cc1c2c(cc3c1[nH]c1ccccc13)C=NCC2"
class = "satisfied"

[[record]]
compound = "C=C(Cl)C(Cl)(CBr)CCC(Br)C(C)(C)Cl (configuration not stated)"
class = "not satisfied"

[[record]]
compound = "Nc1nc(N)c(N=Nc2ccccc2)c(=O)[nH]1"
class = "not satisfied"

[[record]]
compound = "Cc1ccc([S+](c2ccccc2)c2cc(C)ccc2C)cc1.O=C(OC(C(=O)[O-])C(OC(=O)c1ccccc1)C(=O)O)c1ccccc1 (configuration not stated)"
class = "not satisfied"

[[record]]
compound = "[O-][S+]1c2ccccc2N=C(c2cccc3ccccc23)CC1c1cccc2ccccc12 (configuration not stated)"
class = "not satisfied"

[[record]]
compound = "COc1cc(CC(=O)c2cc3c(cc2-c2ccccc2)OCO3)cc(OC)c1OC"
class = "not satisfied"

[[record]]
compound = "COc1cc(C[C@H]2c3cc(OC)c(OC)cc3CCN2C)c(Oc2cc3c(cc2OC)-c2c(OC)c(OC)cc4c2[C@H](C3)N(C)CC4)cc1OC"
class = "not satisfied"

[[record]]
compound = "CCCN(CCC)C(=S)Sc1nc(C)nc(N2CCN(c3nc(C)nc(SC(=S)N(CCC)CCC)c3[N+](=O)[O-])CC2)c1[N+](=O)[O-]"
class = "satisfied"

[[record]]
compound = "Cc1c2ccncc2cc2c1[nH]c1ccccc12"
class = "satisfied"

[[record]]
compound = "CC(CN(C)C)C(=O)c1ccccc1C(=O)O (configuration not stated)"
class = "satisfied"

[[record]]
compound = "O=C1c2ccccc2C(=O)c2sc(Nc3ccc(Cl)cc3)nc21"
class = "not satisfied"

[[record]]
compound = "CCCCCCC1CC(=O)C1(Cl)Cl (configuration not stated)"
class = "satisfied"

[[record]]
compound = "Cc1ccc2c(ccc(C=Cc3ccc(O)c4ncccc34)[n+]2C)c1"
class = "not satisfied"

[[record]]
compound = "COc1ccc(/C(=N/O)C(c2ccc(OC)cc2)C2C(=O)Oc3ccccc32)cc1 (configuration not stated)"
class = "not satisfied"

[[record]]
compound = "CC(C)c1ccc(O)c(=O)cc1"
class = "not satisfied"

[[record]]
compound = "NC(=Nc1nc(-c2ccccn2)cc2ccccc12)c1ccccn1"
class = "not satisfied"

[[record]]
compound = "Cc1nn(-c2ccccc2)c2c1CC(=O)Nc1ccccc1-2"
class = "satisfied"

[[record]]
compound = "O=C([O-])c1cc(I)cc(I)c1O.O=C([O-])c1cc(I)cc(I)c1O.[Mn+2]"
class = "not satisfied"

[[record]]
compound = "C=C(CN(C)C)C(=O)c1ccccc1Cl"
class = "not satisfied"

[[record]]
compound = "Cc1cc(N)c2ccccc2[n+]1CCCCCCCCCC[n+]1c(C)cc(N)c2ccccc21"
class = "not satisfied"


----------
# Tested on: OVCAR-3-derived ovarian cancer stem-like cells (spheroids)
# run-description: cell growth relative to untreated control; higher = more growth (less inhibition)
# condition-set: 2.29 µM; 96 h
Would you mind labelling by cell growth? At or over 70% is 1.0, under is 0.0.

[[record]]
compound = "CCCCCCCCCCCCCCCCCCOP(=O)([O-])OCC[N+](C)(C)C"
class = 0.0

[[record]]
compound = "Cc1c(Cl)cccc1NC(=O)CC1Sc2ccccc2NC1=O (stereo not drawn)"
class = 1.0

[[record]]
compound = "Cn1ncc2cc3c(Nc4ccc(Cl)cc4)cccc3nc21"
class = 0.0

[[record]]
compound = "Nc1ncnc2c1ncn2C1OC(CO)C(O)C1O (stereo not drawn)"
class = 1.0

[[record]]
compound = "CC(C)[Si]1(C(C)C)OCC2OC(n3cnc4c(N)ncnc43)C(N)C2O[Si](C(C)C)(C(C)C)O1 (stereo not drawn)"
class = 1.0

[[record]]
compound = "Cc1cc(-c2nc3ccccc3s2)ccc1N"
class = 1.0

[[record]]
compound = "COc1ccc(NC(=O)C(=O)/C=C(\\O)c2ccccc2)cc1"
class = 1.0

[[record]]
compound = "N#CC1CC(c2ccccc2)Nc2cc(Cl)ccc2N1 (stereo not drawn)"
class = 1.0

[[record]]
compound = "CC(=O)/C(=C\\c1cccc([N+](=O)[O-])c1)C(=O)Nc1ccccc1C"
class = 1.0

[[record]]
compound = "CCOC(=O)CCn1ncc(Cl)c(Cl)c1=O"
class = 1.0

[[record]]
compound = "CN1CCN(CCNc2ccc(CO)c3sc4ccccc4c(=O)c23)CC1"
class = 0.0

[[record]]
compound = "CN(C)C(=O)c1cccc(COc2ccc(N3C(N)=NC(N)=NC3(C)C)cc2Cl)c1"
class = 1.0

[[record]]
compound = "O=C1NC(c2cccc3ccccc23)Nc2ccccc21 (stereo not drawn)"
class = 0.0

[[record]]
compound = "Cc1ccccc1NC(=O)C(=O)C(c1cnc2ccc([N+](=O)[O-])cc2n1)[N+](=O)[O-] (stereo not drawn)"
class = 1.0

[[record]]
compound = "COc1cc(C(C)c2cc3c(cc2OCCO)OCO3)cc(OC)c1OC (stereo not drawn)"
class = 0.0

[[record]]
compound = "CN(C)CCOc1ccc(I)cc1Cc1ccccc1"
class = 1.0

[[record]]
compound = "COc1cc2c(c(OC)c1OC)-c1ccc(OC)c(=O)cc1[C@@H](NC(=O)c1ccccc1)CC2"
class = 0.0

[[record]]
compound = "O=c1cnn(C2OC(CO)C(O)C2O)c(=S)[nH]1 (stereo not drawn)"
class = 1.0

[[record]]
compound = "NC(=O)N/N=C1\\CC2C3CC4C2C4C13 (stereo not drawn)"
class = 1.0

[[record]]
compound = "COC1(O)C(=O)c2ccccc2OC1(OC)c1ccccc1 (stereo not drawn)"
class = 1.0

[[record]]
compound = "Clc1cc2nc[nH]c2cc1Cl"
class = 1.0

[[record]]
compound = "Cc1[nH]c(=O)nc(N/N=C/c2ccc(Cl)cc2)c1C(=O)Nc1ccc(Cl)cc1"
class = 0.0

[[record]]
compound = "CN/N=C(\\C)C(CN1CCCCC1)C(C1=C(O)c2ccccc2OC1)c1ccccc1 (stereo not drawn)"
class = 1.0


----------
Catalogue of cell growth values
# Tested on: OVCAR-3-derived ovarian cancer stem-like cells (spheroids)
# run-description: cell growth relative to untreated control; higher = more growth (less inhibition)
# condition-set: 2.29 µM; 96 h
reported-endpoint: cell growth (%)

[[record]]
compound = "CSc1ccc(NC(=O)CCl)cc1"
reported_endpoint = "cell growth"
numeric_result = 80.8

[[record]]
compound = "COc1c2c(c(OC)c3c1c(=O)c1ccccc1n3C)OCO2"
reported_endpoint = "cell growth"
numeric_result = 97.8

[[record]]
compound = "COC(=O)c1[nH]c(=S)[nH]c(=O)c1-c1ccc(Cl)cc1"
reported_endpoint = "cell growth"
numeric_result = 37.8

[[record]]
compound = "CCOC(=O)c1ccc(-c2cc(C)no2)[nH]1"
reported_endpoint = "cell growth"
numeric_result = 54.8

[[record]]
compound = "c1ccc(-c2cccc(-c3ccccn3)n2)nc1"
reported_endpoint = "cell growth"
numeric_result = 79.9

[[record]]
compound = "CCCCn1c2c(n(CCCC)c1=S)-c1c(n(CCCC)c(=S)n1CCCC)SSSS2"
reported_endpoint = "cell growth"
numeric_result = 27.2

[[record]]
compound = "CC(=O)c1ccc(Oc2ccc(/C(C)=N/N=C(N)N)cc2)cc1"
reported_endpoint = "cell growth"
numeric_result = 32.4

[[record]]
compound = "O=S(=O)(O)SC/C=C/CSS(=O)(=O)O"
reported_endpoint = "cell growth"
numeric_result = 143

[[record]]
compound = "CCOC(C)C(C=NNC(N)=S)=NNC(N)=S (stereo not given)"
reported_endpoint = "cell growth"
numeric_result = 23

[[record]]
compound = "COC(=O)NC1C(C)OC(OC2C/C=C(/C)C3C=CC4C(OC5CC(OC6CC(O)C(OC7CC(O)C(OC)C(C)O7)C(C)O6)C(O)C(C)O5)C(C)CC(C)C4C3(C)/C(O)=C3\\C(=O)OC4(CC(C)C(CO)=CC4/C=C\\2C)C3=O)CC1(C)[N+](=O)[O-] (stereo not given)"
reported_endpoint = "cell growth"
numeric_result = 105


----------
# Tested on: OVCAR-3-derived ovarian cancer stem-like cells (spheroids)
# run-description: cell growth relative to untreated control; higher = more growth (less inhibition)
# condition-set: 2.29 µM; 96 h
Reported cell growth values for a set of molecules
reported-endpoint: cell growth (%)

[[record]]
molecule = "COc1cc2c(cc1Oc1ccc(OC)c3c1CC1c4c(cc(OC)c(OC)c4-3)CCN1C)CC1c3c(cc(OC)c(OC)c3-2)CCN1C (stereo not drawn)"
reported_endpoint = "cell growth"
unit_annotation = "%"
numeric_result = 101

[[record]]
molecule = "CO[C@H]1/C=C\\C=C(/C)C(=O)NC2=CC(=O)C(N)=C(C[C@@H](C)C[C@H](OC)[C@H](O)[C@@H](C)/C=C(\\C)[C@@H]1OC(N)=O)C2=O"
reported_endpoint = "cell growth"
unit_annotation = "%"
numeric_result = 29.6

[[record]]
molecule = "COc1ccc(OC)c2nc3c(C(=O)NCCN(C)C)cccc3nc12"
reported_endpoint = "cell growth"
unit_annotation = "%"
numeric_result = 119

[[record]]
molecule = "Nc1ncnc2c1nc(Cl)n2[C@@H]1O[C@@H]2COP(=O)(O)O[C@H]2[C@H]1O"
reported_endpoint = "cell growth"
unit_annotation = "%"
numeric_result = 115

[[record]]
molecule = "CCC12C[N+]3([O-])CCc4c([nH]c5ccccc45)C(C(=O)OC)(c4cc5c(cc4OC)N(C)C4C(O)(C(=O)OC)C(OC(C)=O)C6(CC)C=CCN7CCC54C76)CC(C3)C1O2 (stereo not drawn)"
reported_endpoint = "cell growth"
unit_annotation = "%"
numeric_result = 27.9

[[record]]
molecule = "O=C(CC1(O)C(=O)Nc2c(Cl)cc(Cl)cc21)c1ccc([N+](=O)[O-])cc1 (stereo not drawn)"
reported_endpoint = "cell growth"
unit_annotation = "%"
numeric_result = 101

[[record]]
molecule = "CC(=O)OCc1cc(=O)n(C)c2c3c4c(cc12)c(C)cc(=O)n4CO3"
reported_endpoint = "cell growth"
unit_annotation = "%"
numeric_result = 95.1

[[record]]
molecule = "Cc1ccc(S(=O)(=O)NC(=O)NC2=NC(C)(C)N(c3ccc(Cl)c(Cl)c3)C(N)=N2)cc1"
reported_endpoint = "cell growth"
unit_annotation = "%"
numeric_result = 84.1

